# PROTOCOL SUMMARY: refractive index (Na D-line) (dimensionless)
# EXPERIMENTAL CONDITIONS: 293.15 K; 101.33 kPa; Liquid; Standard Abbe refractometry
MEASURED ENDPOINT: refractive index

> print(dat)
   compound.structure.string  value.observed
1                    CC(=O)O          1.3717
2                  COC1CCCC1          1.4187
3                 O=Cc1ccco1          1.5259
4                          O          1.3334
